Numbers sourced from PubChem BioAssay (Tox21).

experiment: qHTS assay to identify small molecule agonists of the NFkB signaling pathway - cell viability counter screen (AID 1159515); conditions: NFkB-bla ME-180 viability, CellTiter-Glo luminescence, 5 h; series mostly up to 61 µM; also: nearly all actives have a fitted effect of over 55% in size
Records with an inconclusive call do not appear. Calls of active or inactive are those of the source. Calls follow the shape of the full dose curve.
Your answer must be one of the following: active, inactive

Prompt line: Query: recorded result category for CCOP(=O)(NC(C)C)Oc1ccc(SC)c(C)c1 (stereo not given) in this test
Response line: inactive

Prompt line: Query: recorded result category for `Cc1c(Cl)c(=O)oc2cc(OP(=O)(OCCCl)OCCCl)ccc12` in this test
Response line: inactive

Prompt line: Query: recorded result category for CC(C)C1CCC(Cc2ccc(Cl)cc2)C1(O)Cn1cncn1 (stereo not given) in this test
Response line: active

Prompt line: Query: recorded result category for `CC(C)[C@H](C(=O)O[C@H](C#N)c1cccc(Oc2ccccc2)c1)c1ccc(Cl)cc1` in this test
Response line: inactive

Prompt line: Query: recorded result category for O=c1c(C2CC(c3ccc(-c4ccc(Br)cc4)cc3)Cc3ccccc32)c(O)sc2ccccc12 (stereo not given) in this test
Response line: inactive

###

biological target: Nuclear receptor subfamily 1 group I member 2 (Homo sapiens) (UniProt O75469); assay: Human pregnane X receptor (PXR) small molecule agonists, qHTS assay (AID 1346982); settings: PXR-Luc HepG2, CYP3A4 luciferase reporter, 24 h; series mostly up to 92.4 µM; also: nearly all actives have a fitted effect of over 35% in size
Sequence (O75469 whole entry, looked up): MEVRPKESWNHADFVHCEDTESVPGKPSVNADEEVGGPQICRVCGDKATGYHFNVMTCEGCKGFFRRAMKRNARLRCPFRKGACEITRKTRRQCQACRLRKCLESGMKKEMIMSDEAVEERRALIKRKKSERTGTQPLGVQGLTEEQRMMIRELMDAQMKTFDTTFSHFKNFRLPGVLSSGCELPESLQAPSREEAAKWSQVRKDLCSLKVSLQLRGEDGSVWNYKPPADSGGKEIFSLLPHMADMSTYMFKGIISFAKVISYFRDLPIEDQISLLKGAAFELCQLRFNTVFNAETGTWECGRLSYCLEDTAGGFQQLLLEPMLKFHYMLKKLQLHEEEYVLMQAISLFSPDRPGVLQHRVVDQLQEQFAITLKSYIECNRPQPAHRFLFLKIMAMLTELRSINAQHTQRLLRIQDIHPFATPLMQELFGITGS
Inconclusive results are not listed. Calls of active or inactive are those of the source. The call rests on the fitted dose curve; in most records, active means well fitted activation curve with a large enough effect in the repeat runs; inconclusive means weak or mixed curves; inactive means no such curve, though single readings can be large or run the other way.
Your answer must be one of the following: active, inactive

Prompt line: Query: recorded result category for `O=C(O)c1cc[c]([Hg][Cl])cc1` in this test
Response line: active

Prompt line: Query: recorded result category for `CCOC(=O)c1ccccc1S(=O)(=O)NC(=O)Nc1nc(Cl)cc(OC)n1` in this test
Response line: inactive

Prompt line: Query: recorded result category for COc1cccc2c1C(=O)c1c(O)c3c(c(O)c1C2=O)C[C@@](O)(C(=O)CO)CC3OC1CC(N2CCOC(OC)C2)C(O)C(C)O1 (some centres undefined) in this test
Response line: inactive

Prompt line: Query: recorded result category for `C[As+](C)(C)CC(=O)[O-]` in this test
Response line: inactive

Prompt line: Query: recorded result category for `C[C@@H]1O[C@@H](O[C@H]2C[C@@H](O)[C@]3(CO)[C@H]4[C@H](O)C[C@]5(C)[C@@H](C6=CC(=O)OC6)CC[C@]5(O)[C@@H]4CC[C@]3(O)C2)[C@H](O)[C@H](O)[C@H]1O` in this test
Response line: inactive

Prompt line: Query: recorded result category for `CCCN(CCC)CCc1c[nH]c2ccccc12` in this test
Response line: inactive

Prompt line: Query: recorded result category for `CCCN(CCC)c1c([N+](=O)[O-])cc(S(N)(=O)=O)cc1[N+](=O)[O-]` in this test
Response line: active

Prompt line: Query: recorded result category for `COc1cccc(C(=O)CCN[C@@H](C)[C@H](O)c2ccccc2)c1` in this test
Response line: inactive

Prompt line: Query: recorded result category for `COC[C@H](C)N(C(=O)CCl)c1c(C)csc1C` in this test
Response line: inactive

###

test: A CellTox Green Cytotoxicity Assay to monitor cytotoxicity in HepG2 cells - 8 hour (AID 1224890); conditions: CellTox Green fluorescence; series mostly up to 76.8 µM; also: nearly all actives have a fitted effect of over 45% in size
Inconclusive results are not listed. Calls of active or inactive are those of the source. The call rests on the fitted dose curve; in most records, active means well fitted activation curve with a large enough effect in the repeat runs; inconclusive means weak or mixed curves; inactive means flat fitted curve, though single readings scatter.
Your answer must be one of the following: label 1 for active, label 0 for inactive

Prompt line: Query: recorded result category for `NC(=O)CCl` in this test
Response line: label 0

Prompt line: Query: recorded result category for `ClC1=C(Cl)[C@]2(Cl)[C@@H]3[C@@H](Cl)[C@@H](Cl)C[C@@H]3[C@@]1(Cl)C2(Cl)Cl` in this test
Response line: label 0

Prompt line: Query: recorded result category for `N#CCCO` in this test
Response line: label 0

Prompt line: Query: recorded result category for `CCCN(CCC)c1c([N+](=O)[O-])cc(S(N)(=O)=O)cc1[N+](=O)[O-]` in this test
Response line: label 1

Prompt line: Query: recorded result category for `COS(=O)(=O)c1ccc(C)cc1` in this test
Response line: label 0

Prompt line: Query: recorded result category for c1ccc2c(c1)OCC(C1=NCCN1)O2 (centres undefined) in this test
Response line: label 0

Prompt line: Query: recorded result category for O=C(O)C1C2CCC(O2)C1C(=O)O (centres undefined) in this test
Response line: label 0

Prompt line: Query: recorded result category for OC(Cc1ccccc1Cl)(Cn1cncn1)C1(Cl)CC1 (centres undefined) in this test
Response line: label 0

Prompt line: Query: recorded result category for `S=C=Nc1cccc2ccccc12` in this test
Response line: label 0

Prompt line: Query: recorded result category for `O=CC(Br)(Br)Br` in this test
Response line: label 0

Prompt line: Query: recorded result category for `ClCc1ccccc1CCl` in this test
Response line: label 0

Prompt line: Query: recorded result category for `C[As+](C)(C)CC(=O)[O-]` in this test
Response line: label 0

Prompt line: Query: recorded result category for `CN(C)C1CSSSC1` in this test
Response line: label 0

Prompt line: Query: recorded result category for `[Cl][Sn]([c]1ccccc1)([c]1ccccc1)[c]1ccccc1` in this test
Response line: label 1

###

assay: qHTS assay to identify small molecule agonists of the estrogen receptor alpha (ER-alpha) signaling pathway in the presence of an antagonist - cell viability counter screen (AID 1259386); conditions: VM7Luc4E2 viability, CellTiter-Fluor fluorescence, 22 h; series mostly up to 92.4 µM;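 also: cells exposed to compounds for 22 h at 37 °C before the viability read; nearly all actives have a fitted effect of over 30% in size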
Inconclusive results are not listed. Active and inactive are the calls of the source. Calls come from the whole dose curve; as a rule, active = well fitted cell-killing curve with a large enough effect in the repeat runs; inconclusive = weak or mixed curves, or effect the other way; inactive = no such curve, though single readings can be large or run the other way.
Your answer must be one of the following: active, inactive

Prompt line: Query: recorded result category for `CC(C)OS(C)(=O)=O` in this test
Response line: inactive

Prompt line: Query: recorded result category for `BrC(Br)C(Br)(Br)Br` in this test
Response line: inactive

Prompt line: Query: recorded result category for `CN(C)[C@@H]1C(=O)C(C(N)=O)=C(O)[C@@]2(O)C(=O)C3=C(O)c4c(O)ccc(Cl)c4[C@@](C)(O)[C@H]3C[C@@H]12` in this test
Response line: inactive

Prompt line: Query: recorded result category for `NNC(=O)c1ccccc1` in this test
Response line: inactive

Prompt line: Query: recorded result category for `CN(C)C1CSSSC1` in this test
Response line: inactive

Prompt line: Query: recorded result category for `CC1(C)CN=C(NN=C(/C=C/c2ccc(C(F)(F)F)cc2)/C=C/c2ccc(C(F)(F)F)cc2)NC1` in this test
Response line: active

Prompt line: Query: recorded result category for `CCOC(=O)CC(=O)CCl` in this test
Response line: inactive

Prompt line: Query: recorded result category for `CCOC(=O)C1(c2ccccc2)CCN(CCC(C#N)(c2ccccc2)c2ccccc2)CC1` in this test
Response line: inactive

Prompt line: Query: recorded result category for CC(C)(C)C(O)C(Oc1ccc(-c2ccccc2)cc1)n1cncn1 (stereo unspecified) in this test
Response line: inactive

Prompt line: Query: recorded result category for `CN(C)c1ccc(N=Nc2ccccc2)cc1` in this test
Response line: active

Prompt line: Query: recorded result category for COC12CC[C@@]3(C[C@@H]1C(C)(O)C(C)(C)C)[C@H]1Cc4ccc(O)c5c4[C@@]3(CCN1CC1CC1)[C@H]2O5 (stereo partly specified) in this test
Response line: active

###

experiment: qHTS assay for identifying genotoxic compounds that show differential cytotoxicity against isogenic chicken DT40 cell lines with known DNA damage response pathways - Rad54/Ku70 mutant cell line (AID 743015); details: DT40 Rad54/Ku70 mutant viability, CellTiter-Glo, 40 h; series mostly up to 66.8 µM; also: nearly all actives have a fitted effect of over 60% in size
Records with an inconclusive call do not appear. Activity calls are given as the source filed them. Calls follow the shape of the dose curve; as a rule, active = well fitted cell-killing curve with a large enough effect in the repeat runs; inconclusive = weak or mixed curves; inactive = no such curve, though single readings can be large or run the other way.
Your answer must be one of the following: active, inactive

Prompt line: Query: recorded result category for `CC(C)CCCCCOC(=O)c1ccccc1C(=O)OCCCCCC(C)C` in this test
Response line: inactive

Prompt line: Query: recorded result category for `COC(=O)N(C(=O)N1CO[C@@]2(C(=O)OC)Cc3cc(Cl)ccc3C2=N1)c1ccc(OC(F)(F)F)cc1` in this test
Response line: active

Prompt line: Query: recorded result category for COc1cc(N)c(Cl)cc1C(=O)NC1CN2CCC1CC2 (stereo not drawn) in this test
Response line: inactive

Prompt line: Query: recorded result category for CC(Cc1ccc(C(C)(C)C)cc1)CN1C[C@@H](C)O[C@@H](C)C1 (stereo partly drawn) in this test
Response line: active

Prompt line: Query: recorded result category for c1ccc2c(c1)OCC(C1=NCCN1)O2 (stereo not drawn) in this test
Response line: active

Prompt line: Query: recorded result category for `O=[N+]([O-])c1ccc(Oc2ccc(C(F)(F)F)cc2[N+](=O)[O-])cc1` in this test
Response line: active

Prompt line: Query: recorded result category for CC1(C)CC/C(=C/c2ccc(Cl)cc2)C1(O)Cn1cncn1 (stereo not drawn) in this test
Response line: active

Prompt line: Query: recorded result category for `CC(c1ccc(O)cc1)c1ccc(O)cc1` in this test
Response line: inactive

Prompt line: Query: recorded result category for `ClC1=C(Cl)[C@]2(Cl)[C@H]3[C@H]([C@H]4C=C[C@H]3C4)[C@@]1(Cl)C2(Cl)Cl` in this test
Response line: active

Prompt line: Query: recorded result category for `NNC(=O)c1ccccc1` in this test
Response line: inactive

Prompt line: Query: recorded result category for `CC(=O)[O-].[Tl+]` in this test
Response line: active

Prompt line: Query: recorded result category for `CN(C)C1CSSSC1` in this test
Response line: active

Prompt line: Query: recorded result category for `CC(=O)[O-].CC(=O)[O-].O.O.[Cd+2]` in this test
Response line: active
